Tested on: Fibroblast
Test: Incucyte cell viability with human fibroblast; further: filed as whole numbers so only -1 and 0 and 1 occur
Format: toxicity, cell-based
Details: 18 h, 10 µM, compound concentration 10 uM, replicate number 1, timepoint 18 hours
parameter measured: Growth Rate
One number for each entry.

# structure, experimental system, Growth Rate
measured = [
    ("CC1=C(C#N)C(c2ccc3[nH]nc(C)c3c2)C(C#N)=C(C)N1", "Fibroblast", 1),
    ("Cc1csc2c(N[C@@H](C)CN3CCN(S(=O)(=O)c4ccc(Cl)c(Cl)c4)CC3)ncnc12", "Fibroblast", 0),
    ("Cc1nc(-c2cn3c(n2)-c2ccc(-c4cnn(C(C)(C)C(N)=O)c4)cc2OCC3)n(C(C)C)n1", "Fibroblast", 0),
]

Please report Growth Rate for every entry that follows.
1. CNc1nc(NCc2ccc(NS(C)(=O)=O)cc2Cl)cc(-c2ccccn2)n1
2. CSc1ccc(C(=O)N[C@@H]2CCCC[C@@H]2NC(=O)CNC(=O)c2cc(C(F)(F)F)ccc2NC(=O)NC(C)C)cc1
3. Cc1nc(-c2ccc(-c3ccc(C(=O)N4CCc5cc6c(cc54)C4(CCN(C)CC4)CO6)cc3)c(C)c2)no1
4. Cc1sc2c(c1C)C(c1ccc(Cl)cc1)=N[C@@H](CC(=O)OC(C)(C)C)c1nnc(C)n1-2
5. CCC(=O)N1CCOc2c(cc(-c3ccc(OC)c(OC)c3)cc2OC[C@H]2CCCN(C)C2)C1

Result block:
[0, 1, 0, 0, 1]

---

Tested on: U2OS
Assay: Multiplex assay against U2OS
Assay type: toxicity, cell-based
Conditions: human, 24 h, 1 µM, compound concentration 1 uM, replicate 2
Give condition met when the value for Population Pyknosed Nuclei (%) is at least 20%. Give condition not met when it is less.

Record excerpt, results attached:
# compound, assigned label
data = [
    ("CN1CCN(c2ccc(OC(F)(F)F)c(Nc3ncc4c(n3)-c3c(c(C(N)=O)nn3CCO)CC4)c2)CC1", "condition not met"),
    ("NC(=O)Nc1cc(-c2cccc(F)c2)sc1C(=O)N[C@H]1CCCNC1", "condition met"),
    ("CC(C)(O)CNc1ncc(-c2ccnc(Nc3ccnc(Cl)c3)n2)c(CC2CC2)n1", "condition not met"),
    ("CNCc1ccc(-c2cc(-c3nc(-c4ccc(S(=O)(=O)C(C)C)cc4)cnc3N)on2)cc1", "condition met"),
    ("CN1CCCC(n2nc(Cc3ccc(Cl)cc3)c3ccccc3c2=O)CC1.Cl (centres undefined) [AZELASTINE HYDROCHLORIDE]", "condition not met"),
]

Query block: Form field: Population Pyknosed Nuclei (%) at least 20%? Entry: `CCN(CC)CCCCNc1ncc2cc(-c3cc(OC)cc(OC)c3)c(NC(=O)NC(C)(C)C)nc2n1`
Result block: condition met

Query block: Form field: Population Pyknosed Nuclei (%) at least 20%? Entry: `C=CC(=O)Nc1cccc(C(=O)Nc2ccc(Nc3cc(-c4[nH]c(SC)nc4C)ccn3)cc2)c1`
Result block: condition not met

Query block: Form field: Population Pyknosed Nuclei (%) at least 20%? Entry: `Cc1nc(-c2cn3c(n2)-c2ccc(-c4cnn(C(C)(C)C(N)=O)c4)cc2OCC3)n(C(C)C)n1`
Result block: condition not met

Query block: Form field: Population Pyknosed Nuclei (%) at least 20%? Entry: COc1cccc([C@@H](C)NCCCc2ccccc2Cl)c1.Cl [TECALCET HYDROCHLORIDE]
Result block: condition not met
